These data points were gathered from PubChem BioAssay.

- PROTOCOL_DETAILS: endothelial E-selectin expression blockers – imaging, HUVEC, immunofluorescence, MLSMR starter and 10KST1 sets, primary screen (AID 487);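 note: 100% = median nuclei count of all wells on the same plate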
- SETTINGS: HUVEC TNFalpha-induced E-selectin immunofluorescence imaging, at 2 µM; measured here: cell number, toxicity
READOUT_KIND: nuclei count

>  <MOLECULE>
N#C/C(=C(/O)COC(=O)CCC1CCCCC1)c1nc2ccccc2[nH]1

>  <MEASURED_RESULT>
113%

$$$$
>  <MOLECULE>
CCOC(=O)N1CCC(NC(=O)c2cnn3ccccc23)CC1

>  <MEASURED_RESULT>
113%

$$$$
>  <MOLECULE>
CCOC(=O)N1CCC(N(CCCOC)C(=O)Nc2ccc(CC)cc2)CC1

>  <MEASURED_RESULT>
93.2%

$$$$
>  <MOLECULE>
COC(=O)C1C(=O)c2c([nH]c(C(=O)OCCOC(C)C)c2C)CC1C (stereo not drawn)

>  <MEASURED_RESULT>
117%

$$$$
>  <MOLECULE>
COc1cccc(NC(=O)C2CCCN2C(=O)Nc2cccc(F)c2)c1 (stereo not drawn)

>  <MEASURED_RESULT>
111%

$$$$
>  <MOLECULE>
COC(=O)c1ccc(Cl)c(NC(C)=O)c1

>  <MEASURED_RESULT>
78.5%

$$$$
>  <MOLECULE>
CCOP(=O)(c1ccc(N(C)C)cc1)C(O)c1ccccc1OC (stereo not drawn)

>  <MEASURED_RESULT>
116%

$$$$
>  <MOLECULE>
CCCNC(=O)c1ccccc1C(=O)NCCC

>  <MEASURED_RESULT>
115%

$$$$
>  <MOLECULE>
Cc1ccc(NC(=O)c2ccccc2O)cc1

>  <MEASURED_RESULT>
119%

$$$$
>  <MOLECULE>
Cc1ccc(S(=O)(=O)N2CCCC2C(=O)OCc2nc3ccccc3s2)cc1 (stereo not drawn)

>  <MEASURED_RESULT>
110%

$$$$
>  <MOLECULE>
COc1cccc(-n2c(SCC(=O)N3CCCC3)nc3c([nH]c4ccccc43)c2=O)c1

>  <MEASURED_RESULT>
91.8%

$$$$
>  <MOLECULE>
Cc1nc2ncnn2c(Nc2ccc3c(c2)OCCO3)c1C

>  <MEASURED_RESULT>
97.7%

$$$$
>  <MOLECULE>
C=CCn1c(SCC(=O)Nc2cccc(OC)c2)nnc1-c1cccnc1

>  <MEASURED_RESULT>
104%

$$$$

====

- PROTOCOL_DETAILS: endothelial E-selectin expression blockers – imaging, HUVEC, immunofluorescence, MLSMR starter and 10KST1 sets, primary screen (AID 487);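 note: 100% = median nuclei count of all wells on the same plate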
- SETTINGS: HUVEC TNFalpha-induced E-selectin immunofluorescence imaging, at 2 µM; measured here: cell number, toxicity
READOUT_KIND: nuclei count (%)

>  <COMPOUND>
CCOC(=O)N1CCN(C(=O)CSc2nnc(COc3ccccc3)o2)CC1

>  <READOUT_KIND>
nuclei count

>  <MEASURED_RESULT>
112

$$$$
>  <COMPOUND>
CCc1nnc(NC(=O)C2CC(=O)N(Cc3ccco3)C2)s1 (configuration not stated)

>  <READOUT_KIND>
nuclei count

>  <MEASURED_RESULT>
106

$$$$
>  <COMPOUND>
Cc1ccc(S(=O)(=O)N(CCO)c2cc3c(s2)CCCC3)cc1

>  <READOUT_KIND>
nuclei count

>  <MEASURED_RESULT>
117

$$$$
>  <COMPOUND>
O=C1c2ccccc2C(=O)N1C/C=C/CN1C(=O)c2ccccc2C1=O

>  <READOUT_KIND>
nuclei count

>  <MEASURED_RESULT>
113

$$$$
>  <COMPOUND>
NC(=O)CSc1cn(CCNC(=O)c2cccs2)c2ccccc12

>  <READOUT_KIND>
nuclei count

>  <MEASURED_RESULT>
98.2

$$$$
>  <COMPOUND>
Cc1cccc(-c2c3c(=O)n(C)c(=O)n(C)c3cn2-c2ccc(O)cc2)c1

>  <READOUT_KIND>
nuclei count

>  <MEASURED_RESULT>
98.7

$$$$
>  <COMPOUND>
CCN(CCNC(=O)C1CCN(S(C)(=O)=O)CC1)c1ccccc1

>  <READOUT_KIND>
nuclei count

>  <MEASURED_RESULT>
117

$$$$
>  <COMPOUND>
Cn1ccnc1SCC(=O)Nc1ccc2ccccc2c1

>  <READOUT_KIND>
nuclei count

>  <MEASURED_RESULT>
105

$$$$
>  <COMPOUND>
CCCCN(C)C(=O)c1cn(C)c2ccc(S(=O)(=O)N(C)C)cc2c1=O

>  <READOUT_KIND>
nuclei count

>  <MEASURED_RESULT>
105

$$$$
>  <COMPOUND>
CS(=O)(=O)N1CCCC(C(=O)N2CCOCC2)C1 (configuration not stated)

>  <READOUT_KIND>
nuclei count

>  <MEASURED_RESULT>
116

$$$$
>  <COMPOUND>
CC1CN(C(=O)CSc2nnc(-c3ccc(Cl)cc3)n2C)CC(C)O1 (configuration not stated)

>  <READOUT_KIND>
nuclei count

>  <MEASURED_RESULT>
124

$$$$
>  <COMPOUND>
CSc1ccc(Cn2nnc(C(=O)NCc3ccccc3)c2N)cc1

>  <READOUT_KIND>
nuclei count

>  <MEASURED_RESULT>
134

$$$$

====

Collected fluorescence slope values appear next to each entry.
- MEASURED_ON: Voltage-gated potassium channel subunit beta-2 (Rattus norvegicus)
- PROTOCOL_DETAILS: inhibitors of rat Kvbeta2 reductase activity – biochemical, NADPH fluorescence, primary screen (AID 622);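 note: slope of raw intensity against log time taken from 70 to 1610 s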
- SETTINGS: recombinant KvBeta, 4-cyanobenzaldehyde reduction, at 10 µM, stronger effect = higher value
READOUT_KIND: fluorescence slope

>  <MOLECULE>
COc1cc2nc(SCC(=O)NC3CC3)n(CCC3=CCCCC3)c(=O)c2cc1OC

>  <READOUT_KIND>
fluorescence slope

>  <MEASURED_RESULT>
-0.427

$$$$
>  <MOLECULE>
COc1ccc(-c2ccc(-c3noc(-c4cccs4)n3)c(OC)n2)cc1

>  <READOUT_KIND>
fluorescence slope

>  <MEASURED_RESULT>
-0.0459

$$$$
>  <MOLECULE>
CC1=C(C(=O)NCc2ccccc2)C(c2ccccc2OCC(N)=O)NC(=O)N1 (stereo unspecified)

>  <READOUT_KIND>
fluorescence slope

>  <MEASURED_RESULT>
-0.428

$$$$
>  <MOLECULE>
CCOC(=O)c1ccc(NS(=O)(=O)c2ccc3c(c2)CCCN3C(C)=O)cc1

>  <READOUT_KIND>
fluorescence slope

>  <MEASURED_RESULT>
-0.543

$$$$
>  <MOLECULE>
CC(=O)NC(Cc1cc(C)ccc1C)C(=O)N1CCN(C(=O)Nc2ccc(C(C)=O)cc2)CC1 (stereo unspecified)

>  <READOUT_KIND>
fluorescence slope

>  <MEASURED_RESULT>
-0.378

$$$$
>  <MOLECULE>
COc1ccccc1NC(=O)CSc1nnnn1-c1ccc2c(c1)OCO2

>  <READOUT_KIND>
fluorescence slope

>  <MEASURED_RESULT>
-0.487

$$$$
>  <MOLECULE>
O=C(c1cc2cc(Cl)cc(Cl)c2oc1=O)N1CCOCC1

>  <READOUT_KIND>
fluorescence slope

>  <MEASURED_RESULT>
-0.48

$$$$
>  <MOLECULE>
Cc1ccc(-c2oc3ccccc3c(=O)c2O)cc1

>  <READOUT_KIND>
fluorescence slope

>  <MEASURED_RESULT>
-0.0172

$$$$
>  <MOLECULE>
[O-][n+]1c2ccc3nonc3c2nn1-c1ccccc1Cl

>  <READOUT_KIND>
fluorescence slope

>  <MEASURED_RESULT>
-0.507

$$$$
>  <MOLECULE>
COc1ccc(CCNc2oc(COc3ccccc3Cl)nc2C#N)cc1OC

>  <READOUT_KIND>
fluorescence slope

>  <MEASURED_RESULT>
-0.462

$$$$
>  <MOLECULE>
Cc1cccc(NC(=O)c2cc(NC(=O)c3ccco3)ccc2N2CCCCC2)c1

>  <READOUT_KIND>
fluorescence slope

>  <MEASURED_RESULT>
-0.52

$$$$
>  <MOLECULE>
CCOC(=O)c1ccc(N(CC(=O)NC2CCCC2)C(=O)CNC(=O)c2ccco2)cc1

>  <READOUT_KIND>
fluorescence slope

>  <MEASURED_RESULT>
-0.508

$$$$
>  <MOLECULE>
CC1=Nn2c(nnc2-c2ccc(F)cc2)SC1

>  <READOUT_KIND>
fluorescence slope

>  <MEASURED_RESULT>
-0.33

$$$$
>  <MOLECULE>
Cc1c(C(=O)OC2CCCCC2)[nH]c2c1C(=O)CC(C)(C)C2

>  <READOUT_KIND>
fluorescence slope

>  <MEASURED_RESULT>
-0.407

$$$$
>  <MOLECULE>
COc1cccc(-c2cc(C(F)(F)F)nc(NCc3ccco3)n2)c1

>  <READOUT_KIND>
fluorescence slope

>  <MEASURED_RESULT>
-0.469

$$$$
>  <MOLECULE>
Cc1ccc(Cn2nnc(C(=O)Nc3cccc(C)c3C)c2N)cc1

>  <READOUT_KIND>
fluorescence slope

>  <MEASURED_RESULT>
-0.565

$$$$
